tested on: SK-MEL-28; test: NCI tumour cell line growth inhibition, 48 h
Active and inactive are the calls of the source. Rule as the data show it: active = GI50 up to about 1.1 µM and inactive = higher. Peptide text beside a SMILES is read from it. * marks the point of attachment. Boc = CC(C)(C)OC(=O)*; OBn = c1ccc(CO*)cc1; Bn = c1ccc(C*)cc1
Entry note: the call must match one of Yes (active), No (inactive)

Input line: I'd appreciate the recorded outcome for O=CN1CCN(C(=O)c2ccc(Cl)cc2)C1=S from this test.
Output line: No

Input line: I'd appreciate the recorded outcome for COc1ccc(-c2c(C#N)c(=O)nc(SC)n2C2OCC(OC(C)=O)C(OC(C)=O)C2OC(C)=O)cc1 (configuration not stated) from this test.
Output line: No

Input line: I'd appreciate the recorded outcome for CC1=NN2C(=O)CC(=O)N=C2S1 from this test.
Output line: No

Input line: I'd appreciate the recorded outcome for CC1C2CC(CC2(C)O)C1(C)C (configuration not stated) from this test.
Output line: No

Input line: I'd appreciate the recorded outcome for CN1c2ccc(Cl)cc2C(=O)NC1c1ccc([N+](=O)[O-])s1 (configuration not stated) from this test.
Output line: No

Input line: I'd appreciate the recorded outcome for C[C@H]1C/C=C/[C@H]2[C@@H]3O[C@]3(C)[C@@H](C)[C@H]3[C@H](Cc4ccccc4)NC(=O)[C@]32OC(=O)O/C=C/[C@@](C)(O)C1=O from this test.
Output line: Yes

Input line: I'd appreciate the recorded outcome for O=C(NCC(=O)N1CCCC1C(=O)OC(=O)C1CCCN1C(=O)CNC(=O)OCc1ccccc1)OCc1ccccc1 (configuration not stated) from this test.
Output line: No

Input line: I'd appreciate the recorded outcome for CCCCCCCCCC(=O)CC(=O)c1ccc(O)cc1O from this test.
Output line: No

Input line: I'd appreciate the recorded outcome for c1ccc(N/N=C2\CC(c3ccccc3)Oc3ccccc32)cc1 (configuration not stated) from this test.
Output line: No

Input line: I'd appreciate the recorded outcome for CCOC(=O)NN(C(=O)OCC)C(C(=O)c1ccc(Cl)cc1)=C1NCCN1 from this test.
Output line: No

Input line: I'd appreciate the recorded outcome for Cc1csc(=S)n1OC(=O)NC1CCCCC1 from this test.
Output line: No

Input line: I'd appreciate the recorded outcome for O=C(O)C1(CC(CCCN2CCCCC2)c2ccccc2)CCCC1 (configuration not stated) from this test.
Output line: No

Input line: I'd appreciate the recorded outcome for ClC1(Cl)C(c2ccccc2)C1c1ccccc1 (configuration not stated) from this test.
Output line: No

Input line: I'd appreciate the recorded outcome for Cc1nc(C)c(N2CCN(Cc3ccccc3)CC2)c(O)n1 from this test.
Output line: No

Input line: I'd appreciate the recorded outcome for COc1ccc2c(c1)c1c3n2CCNN=C3CCC1 from this test.
Output line: No

Input line: I'd appreciate the recorded outcome for COc1cc(C2S/C(=C/c3ccccc3)C(=O)N2c2ccc(Cl)cc2)cc(OC)c1OC (configuration not stated) from this test.
Output line: No

Input line: I'd appreciate the recorded outcome for Cc1cccc(NC(=O)C(=O)C(C(=O)c2ccc3ccccc3c2)C2OC(=O)c3ccccc32)c1C (configuration not stated) from this test.
Output line: No

Input line: I'd appreciate the recorded outcome for COc1cc(/C=C\c2ccccn2)cc(OC)c1OC from this test.
Output line: No

Input line: I'd appreciate the recorded outcome for N=C(N)C1CN(CCc2c[nH]c3ccccc23)C(=O)NC1=O (configuration not stated) from this test.
Output line: No

Input line: I'd appreciate the recorded outcome for CC(C)CC(NC(=O)C(CCC(=O)OCc1ccccc1)NC(=O)OC(C)(C)C)C(=O)NC(COCc1ccccc1)C(=O)NC(Cc1ccccc1)C(=O)O (configuration not stated) (Boc-E(OBn)LS(Bn)F-OH; configuration not given here) from this test.
Output line: No

Input line: I'd appreciate the recorded outcome for COC(=O)[C@]1(c2cc3ccccc3n2S(=O)(=O)c2ccccc2)CC2CN(C(=O)OCc3ccccc3)C1C1OC(C)(C)OC21 (some centres not stated) from this test.
Output line: No

Input line: I'd appreciate the recorded outcome for CC(Oc1ccc(Cl)cc1Cl)C(=O)NN1C(=O)CSC1c1ccc(Cl)cc1 (configuration not stated) from this test.
Output line: No

###

Field: GI50. Provide a value for each of the molecules that follow.
system: EKVX; experiment: NCI tumour cell line growth inhibition, 48 h
Active and inactive are the calls of the source. Cut-off read from the data, not from the text of the source: active = GI50 up to about 1.1 µM and inactive = higher.

Input line: Look up GI50 for this molecule: CCOC(=O)c1ccc(OCc2nc3cc(C(F)(F)F)ccc3nc2-c2ccccc2)cc1
Output line: > 100 µM (inactive)

Input line: Look up GI50 for this molecule: CN(C)CCCNC1=C(Cl)C(=O)c2c(O)ccc(O)c2C1=O
Output line: 3.37 µM (inactive)

Input line: Look up GI50 for this molecule: CC1(C)Cc2c(c3ccccc3c3nc4c(nc23)c2c(c3ccccc34)OC(C)(C)C2)O1
Output line: > 100 µM (inactive)

Input line: Look up GI50 for this molecule: O=C1OCC(O)=C1C(c1ccc(Cl)cc1)c1cc2c(cc1O)OCO2 (centres undefined)
Output line: > 100 µM (inactive)

###

tested on: XF498; test: NCI tumour cell line growth inhibition, 48 h
Active and inactive are the calls of the source. No stated cut-off is given here; in the data, active = GI50 up to about 1.1 µM and inactive = higher.
Field: GI50. Provide a value for each of the compounds that follow.

Input line: Look up GI50 for this compound: O=c1cnn2c(n1)sc1ccc3ccccc3c12
Output line: > 100 µM (inactive)

Input line: Look up GI50 for this compound: C/N=c1\ss/c(=N\C(=S)N(C)C)n1C
Output line: > 100 µM (inactive)

Input line: Look up GI50 for this compound: CCOC(=O)C1(C)C2=CC=C(O2)C(C)(C)C2=CC=C(O2)C(C)(C)C2=CC=C(O2)C(C)(C)C2=CC=C1O2
Output line: > 100 µM (inactive)

Input line: Look up GI50 for this compound: COC(=O)c1ccccc1OCc1cc(=O)oc2ccc(C)cc12
Output line: 31.8 µM (inactive)

Input line: Look up GI50 for this compound: Cn1cc(NC(=O)c2cc(NC(=O)CCCCCCCCC(=O)Nc3cc(C(=O)Nc4cc(C(=O)NCCC(N)N)n(C)c4)n(C)c3)cn2C)cc1C(=O)NCCC(=N)N
Output line: 28.6 µM (inactive)

Input line: Look up GI50 for this compound: Cc1cc(N(CCC#N)CCC#N)ccc1/C=C1N=C(/C=C/c2ccccc2)OC(=O)N\1
Output line: > 100 µM (inactive)

###

tested on: Malme-3M; assay: NCI tumour cell line growth inhibition, 48 h
Activity calls are given as the source filed them. No stated cut-off is given here; in the data, active = GI50 up to about 1.1 µM and inactive = higher.
Entry note: the call must match one of active, inactive

Input line: I'd appreciate the recorded outcome for Cc1ccc(-c2n[nH]c(=O)[nH]2)cc1 from this test.
Output line: inactive

Input line: I'd appreciate the recorded outcome for CC(=O)O[C@H]1CC[C@@]2(C)C(=C/C(=N\[N+](=O)[O-])[C@H]3C4CCC([C@H](C)CCCC(C)C)[C@@]4(C)CCC32)C1 (some centres undefined) from this test.
Output line: inactive

Input line: I'd appreciate the recorded outcome for Cc1cc2nc3[nH]nc(N)c3nc2cc1C from this test.
Output line: inactive

Input line: I'd appreciate the recorded outcome for CCC(=O)Nc1ccc(N2C(=O)/C(=C/c3ccc(O)c(OC)c3)N=C2c2ccccc2)cc1 from this test.
Output line: inactive

Input line: I'd appreciate the recorded outcome for CC1CCC(O)/C=C/C(=O)OC(C)C(O)/C=C/C(=O)O1 (centres undefined) from this test.
Output line: inactive

Input line: I'd appreciate the recorded outcome for COc1ccc2c(c1)CC1C3(CCCCC23)CC[N+]1(C)C (centres undefined) from this test.
Output line: inactive

Input line: I'd appreciate the recorded outcome for c1cncc(-c2cc(-c3cc(-c4cccnc4)[nH]n3)n[nH]2)c1 from this test.
Output line: inactive

Input line: I'd appreciate the recorded outcome for COc1ccc2nc(N/N=C/c3sccc3C)cc(C)c2c1 from this test.
Output line: inactive

Input line: I'd appreciate the recorded outcome for COc1cc(/C=N\O[Si](C)(C)C(C)(C)C)ccc1O[Si](C)(C)C(C)(C)C from this test.
Output line: inactive

Input line: I'd appreciate the recorded outcome for COC(OC)C1OC(CO)C(n2ccc(N)nc2=O)C1O (centres undefined) from this test.
Output line: inactive

Input line: I'd appreciate the recorded outcome for CC1(C)SC2C(C(=O)O)N=C(Cc3ccccc3)N2C1C(=O)O (centres undefined) from this test.
Output line: inactive

Input line: I'd appreciate the recorded outcome for CCN(CC)CC(=N)N(CC)c1ccccc1 from this test.
Output line: inactive

Input line: I'd appreciate the recorded outcome for NC(=O)NNC(=O)c1nc[nH]c1[N+](=O)[O-] from this test.
Output line: inactive

Input line: I'd appreciate the recorded outcome for CC1S/C(=N\N=C2/C(=O)Nc3ccc(Br)cc32)N(C2CCCCC2)C1=O (centres undefined) from this test.
Output line: inactive

Input line: I'd appreciate the recorded outcome for C/C(=N/NC(=S)N(Cc1ccccn1)Cc1ccccn1)c1cnccn1 from this test.
Output line: active

Input line: I'd appreciate the recorded outcome for O=C(NC/C(Cl)=C/Cl)Nc1cccc2c1CCCC2 from this test.
Output line: inactive

Input line: I'd appreciate the recorded outcome for COC(=O)C1CCc2c1c(=O)n1c([nH]c3ccccc31)c2C#N (centres undefined) from this test.
Output line: inactive

Input line: I'd appreciate the recorded outcome for c1ccc2c(c1)SC1Sc3ccccc3[S+]21 (centres undefined) from this test.
Output line: inactive

Input line: I'd appreciate the recorded outcome for Oc1cc(-c2ccccc2)nc2c(S)cccc12 from this test.
Output line: inactive

Input line: I'd appreciate the recorded outcome for COc1ccccc1/C=C1\CCC(CN(C)C)C1=O (centres undefined) from this test.
Output line: inactive

Input line: I'd appreciate the recorded outcome for O=C1[C@@H]2C(c3ccccc3[N+](=O)[O-])=NO[C@@H]2C(=O)N1c1ccc(Cc2ccc(N3C(=O)[C@H]4C(c5ccccc5[N+](=O)[O-])=NO[C@H]4C3=O)cc2)cc1 from this test.
Output line: inactive

Input line: I'd appreciate the recorded outcome for N#C/C(=C\c1ccc2[nH]ccc2c1)C(=O)c1ccc(O)c(O)c1 from this test.
Output line: inactive

Input line: I'd appreciate the recorded outcome for CCOC(=O)NC(=O)c1cn(C2OC(COC(=O)CCCCCCCCC(=O)OCC3OC(n4cc(C(=O)NC(=O)OCC)c(=O)[nH]c4=O)C4OC(C)(C)OC34)C3OC(C)(C)OC32)c(=O)[nH]c1=O (centres undefined) from this test.
Output line: inactive

Input line: I'd appreciate the recorded outcome for C=CCN1C(=O)CS/C1=N/NC(=O)C(O)(c1ccccc1)c1ccccc1 from this test.
Output line: inactive

Input line: I'd appreciate the recorded outcome for C#CCn1c(=O)c(C#N)c(O)c2cc3ccccc3nc21 from this test.
Output line: inactive

Input line: I'd appreciate the recorded outcome for CN(C)CCNC(=O)c1c(O)ccc2c1c1c(n2CCc2ccccc2)C(=O)c2ccccc2C1=O from this test.
Output line: inactive

Input line: I'd appreciate the recorded outcome for Cc1nc2ccc(Cl)cc2c(Cl)c1CCCl from this test.
Output line: inactive

Input line: I'd appreciate the recorded outcome for Cc1c(O)c(O)cc[n+]1C1OC(CO)C(O)C1O (centres undefined) from this test.
Output line: inactive

Input line: I'd appreciate the recorded outcome for COC(=O)[C@]1(c2cc3ccccc3n2S(=O)(=O)c2ccccc2)CC2CN(C(=O)OCc3ccccc3)C1C1OC(C)(C)OC21 (some centres undefined) from this test.
Output line: inactive
